biological target: T1, Hu FcRn (BPS Bioscience) (human, UniProt P55899 24-297; P61769 21-119); assay: optimized ELISA on FcRn, pH 7.4
T1 construct: Bought recombinant protein coated on ELISA plates; also called human FcRn; human neonatal Fc receptor
T1 sequence (P55899 24-297 limits assumed, chain 1 of 2): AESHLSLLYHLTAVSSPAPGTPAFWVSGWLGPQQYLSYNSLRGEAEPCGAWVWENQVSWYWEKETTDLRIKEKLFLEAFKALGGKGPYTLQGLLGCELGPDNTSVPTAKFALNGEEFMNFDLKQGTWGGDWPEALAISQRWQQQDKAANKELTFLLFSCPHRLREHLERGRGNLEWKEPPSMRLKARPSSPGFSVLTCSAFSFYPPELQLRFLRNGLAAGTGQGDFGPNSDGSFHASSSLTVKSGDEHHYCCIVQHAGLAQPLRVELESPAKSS
T1 sequence (P61769 21-119 limits assumed, chain 2 of 2): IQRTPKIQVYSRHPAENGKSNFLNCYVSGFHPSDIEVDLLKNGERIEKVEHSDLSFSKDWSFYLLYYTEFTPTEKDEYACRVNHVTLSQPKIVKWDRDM
reported.endpoint: EC50 (µM)
Supply the numeric figure in µM, leaving out any unit text.

Record excerpt, results attached:
binder="FcRn-12 (designed binder, AFFIMER (stefin A variant)) MIPRGLSEAKPATPEIQEIVDKVKPQLEEKTNETYGKLEAVQYKTQVLAKVKTHDHQRSTNYYIKVRAGDNKYMHLKVFNGPIHQHHSQDWADRVLTGYQVDKNKDDELTGFHHHHHH" recorded_number=15.7
binder="FcRn-109 (designed binder, AFFIMER (stefin A variant)) MIPRGLSEAKPATPEIQEIVDKVKPQLEEKTNETYGKLEAVQYKTQVLARPHNRDSHRSTNYYIKVRAGDNKYMHLKVFNGPDRKHRKHWHADRVLTGYQVDKNKDDELTGFHHHHHH" recorded_number=15.7
binder="FcRn-18 (designed binder, AFFIMER (stefin A variant)) MIPRGLSEAKPATPEIQEIVDKVKPQLEEKTNETYGKLEAVQYKTQVLAETPHERHKTSTNYYIKVRAGDNKYMHLKVFNGPKRWLKHHAHADRVLTGYQVDKNKDDELTGFHHHHHH" recorded_number=19.7

(Q) Please list EC50 recorded for the binder FcRn-176 (designed binder, AFFIMER (stefin A variant)) MIPRGLSEAKPATPEIQEIVDKVKPQLEEKTNETYGKLEAVQYKTQVLAGRHHESHKSSTNYYIKVRAGDNKYMHLKVFNGPFQHKLHKHHADRVLTGYQVDKNKDDELTGFHHHHHH
(A) 78.9

(Q) Please list EC50 recorded for the binder FcRn-88 (designed binder, AFFIMER (stefin A variant)) MIPRGLSEAKPATPEIQEIVDKVKPQLEEKTNETYGKLEAVQYKTQVLAHHTKHHSRWSTNYYIKVRAGDNKYMHLKVFNGPVNHISHAPIADRVLTGYQVDKNKDDELTGFHHHHHH
(A) 23.3
